Numbers sourced from paper PMC5401905.

Biological target: T1, KdpE (Mycobacterium smegmatis, UniProt A0R399 2-230)
T1 sequence: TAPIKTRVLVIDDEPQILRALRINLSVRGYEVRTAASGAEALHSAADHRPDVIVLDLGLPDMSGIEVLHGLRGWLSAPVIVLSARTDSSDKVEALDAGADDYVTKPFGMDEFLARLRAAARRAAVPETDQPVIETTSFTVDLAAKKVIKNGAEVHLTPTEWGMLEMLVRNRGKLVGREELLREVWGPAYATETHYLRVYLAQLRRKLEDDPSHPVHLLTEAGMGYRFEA
Experiment: EMSA; 0.5 mM ATP; 10 mM Tris pH 7.5 (20 C), 100 mM KCl, 1 mM EDTA, 0.1 mM DTT, 5% glycerol, 0.010 mg/mL BSA, 0.5 mM Na2ATP; 25 C, 1 h; 6% native PAGE in 0.25x TBE
Settings: protein: recombinant; tags: 6xHis (pET28a); chain copies: 2; blunt
EXPERIMENTAL READOUT: binding result

FPC-28 (dsDNA) DNA 1: CCGTAAAGAAACCATCAAGGCCGCGTTC DNA 2: GAACGCGGCCTTGATGGTTTCTTTACGG :: binds
FPC-33 (dsDNA) DNA 1: ACCGTAAAGAAACCATCAAGGCCGCGTTCGCGG DNA 2: CCGCGAACGCGGCCTTGATGGTTTCTTTACGGT :: binds
FPC-22 (dsDNA) DNA 1: CCGTAAAGAAACCATCAAGGCC DNA 2: GGCCTTGATGGTTTCTTTACGG :: binds
